# Tested on: hLiMTs
# Procedure text: Combined HCI (HCS) and cellular ATP 3D assay in hLiMTs
# Setup conditions: hLiMTs; HCS endpoints; cut-off <25x Avg Cmax
Readout: hLiMTs <25x Avg Cmax HCS

These solved cases illustrate the format of a correct answer.
INSERT INTO results (compound, result_value) VALUES
  ('O=c1[nH]c(=O)n([C@@H]2O[C@H](CO)[C@@H](O)[C@@H]2F)cc1I [fialuridine]', '+ve'),
  ('N[C@@H]1[C@H]2CN(c3nc4c(cc3F)c(=O)c(C(=O)O)cn4-c3ccc(F)cc3F)C[C@@H]12 [trovafloxacin]', '+ve'),
  ('CN(Cc1cnc2nc(N)nc(N)c2n1)c1ccc(C(=O)N[C@@H](CCC(=O)O)C(=O)O)cc1 [methotrexate, reference compound]', '+ve'),
  ('CC(=O)N1CCN(c2ccc(OCC3COC(Cn4ccnc4)(c4ccc(Cl)cc4Cl)O3)cc2)CC1 (centres unmarked) [ketoconazole, reference compound]', '+ve'),
  ('CCN(CC)C(=O)/C(C#N)=C/c1cc(O)c(O)c([N+](=O)[O-])c1 [entacapone]', '+ve'),
  ('CN(C)C(=O)Oc1cccc([N+](C)(C)C)c1 [neostigmine]', '-ve'),
  ('CCOC(=O)CN[C@@H](C(=O)N1CC[C@H]1C(=O)NCc1ccc(/C(N)=N\O)cc1)C1CCCCC1 [ximelagatran]', '-ve');

Here is another compound to look at.
Record summary for O=C(O)Cc1ccccc1Nc1c(Cl)cccc1Cl [diclofenac] : reported hLiMTs <25x Avg Cmax HCS = +ve

###

# Tested on: hLiMTs
# Procedure text: Combined HCI (HCS) and cellular ATP 3D assay in hLiMTs
# Setup conditions: hLiMTs; all endpoints; Cmax min used
Readout: hLiMTs Cmax min All

INSERT INTO results (molecule, readout, result_value) VALUES
  ('NNC(=O)c1ccncc1 [isoniazid, reference compound]', 'hLiMTs Cmax min All', '-ve'),
  ('CC(=O)Oc1ccccc1C(=O)O', 'hLiMTs Cmax min All', '+ve'),
  ('Cc1c(C)c2c(c(C)c1O)CCC(C)(COc1ccc(CC3SC(=O)NC3=O)cc1)O2 (centres unmarked) [troglitazone, reference compound]', 'hLiMTs Cmax min All', '+ve'),
  ('CS(=O)(=O)CCNCc1ccc(-c2ccc3ncnc(Nc4ccc(OCc5cccc(F)c5)c(Cl)c4)c3c2)o1', 'hLiMTs Cmax min All', '+ve'),
  ('COc1ccccc1Oc1c(NS(=O)(=O)c2ccc(C(C)(C)C)cc2)nc(-c2ncccn2)nc1OCCO', 'hLiMTs Cmax min All', '+ve'),
  ('CC[C@H]1OC(=O)[C@H](C)[C@@H](O[C@H]2C[C@@](C)(OC)[C@@H](O)[C@H](C)O2)[C@H](C)[C@@H](O[C@@H]2O[C@H](C)C[C@H](N(C)C)[C@H]2O)[C@](C)(O)C[C@@H](C)C(=O)[C@H](C)[C@@H](O)[C@]1(C)O', 'hLiMTs Cmax min All', '-ve'),
  ('Cc1ccc(N(CC2=NCCN2)c2cccc(O)c2)cc1', 'hLiMTs Cmax min All', '-ve'),
  ('CN(C)C(=O)Oc1cccc([N+](C)(C)C)c1', 'hLiMTs Cmax min All', '-ve');

I have 2 molecules here; please give me hLiMTs Cmax min All for each one.
1. CCN(CC)CC#CCOC(=O)C(O)(c1ccccc1)C1CCCCC1 (centres unmarked)
2. Cc1ccc(C(=O)c2cc(O)c(O)c([N+](=O)[O-])c2)cc1 [tolcapone, reference compound]

1. -ve
2. +ve

Quick batch: hLiMTs Cmax min All for everything below.
1. CCOC(=O)c1ncn2c1CN(C)C(=O)c1cc(F)ccc1-2 [flumazenil, reference compound]
2. COc1ccc2c(c1)c(CC(=O)O)c(C)n2C(=O)c1ccc(Cl)cc1
3. CCN(CC)C(=O)/C(C#N)=C/c1cc(O)c(O)c([N+](=O)[O-])c1

-ve
+ve
-ve

Look up hLiMTs Cmax min All for the entries below, preserving their order.
1. Cc1c(-c2ccccc2)oc2c(C(=O)OCCN3CCCCC3)cccc2c1=O [flavoxate]
2. CC(COc1ccccc1)N(CCCl)Cc1ccccc1 (centres unmarked)
3. CNC1(C)C2CCC(C2)C1(C)C (centres unmarked)
4. CC(=O)N1CCN(c2ccc(OCC3COC(Cn4ccnc4)(c4ccc(Cl)cc4Cl)O3)cc2)CC1 (centres unmarked) [ketoconazole, reference compound]
5. O=C1CN(/N=C/c2ccc([N+](=O)[O-])o2)C(=O)N1 [nitrofurantoin, reference compound]
6. N[C@@H](Cc1cc(I)c(Oc2ccc(O)c(I)c2)c(I)c1)C(=O)O
7. C1CCC(C(CC2CCCCN2)C2CCCCC2)CC1 (centres unmarked)
8. Clc1ccccc1CN1CCc2sccc2C1

["-ve", "-ve", "-ve", "+ve", "+ve", "-ve", "+ve", "+ve"]
